- subject_of_test: Complex I
- assay_details: Assay A: Determination of Complex I mediated ROS-inhibition (CI)
- measurement_parameters: read-out: CI IC50; ROS generation by Complex I purified from bovine heart, Amplex Red/horse radish peroxidase readout, 8 point concentration-response
pIC50: −log10 of the molar value.
Entry flag: condition met if pIC50 reaches 7; condition not met if it does not.

Example entries begin here.
CC(Nc1ccc2c(c1)/C(=C1\COCCN1)C(=O)N2C(C)C)C1CC1 (stereo not drawn): condition not met
O=C1/C(=C2/COCCN2)c2cc(NC3CCOCC3)ccc2N1C1CCOCC1: condition met
CC(C)Nc1ccc2c(c1)/C(=C1\COC3(CCN(C(C)C)CC3)CN1)C(=O)N2C(C)C: condition not met
O=C1/C(=C2/COCCN2)c2cc(NCC3CCOC3)ccc2N1C1CCOCC1 (stereo not drawn): condition not met

# evaluate next
Item `O=C1/C(=C2/COCCN2)c2cc(NC3CCC3)ccc2N1C1CCOCC1` with pIC50 of 7 or above?
condition met

###

- subject_of_test: Complex I
- assay_details: Assay A: Determination of Complex I mediated ROS-inhibition (CI)
- measurement_parameters: read-out: CI IC50; ROS generation by Complex I purified from bovine heart, Amplex Red/horse radish peroxidase readout, 8 point concentration-response
pIC50 values, listed per item
The read-out pIC50 is expressed as -log10 of concentration in moles per litre.

CC(C)N1C(=O)/C(=C2/CCCCN2)c2cc(N3CCOCC3)ccc21 [Compound 158]: 6.61
CC(C)Nc1ccc2c(c1)/C(=C1\CN(C3CCOCC3)CCN1)C(=O)N2C1CCOCC1 [Compound 24]: 7.32

Determine from records and report pIC50 for CC(Nc1ccc2c(c1)/C(=C1\COCCN1)C(=O)N2C1CCOCC1)c1cccnc1 (stereo not drawn) [Compound 100]
7.47

Answer with the recorded pIC50 for the compound listed here: CC1CCCC1Nc1ccc2c(c1)/C(=C1\COCCN1)C(=O)N2C(C)C (stereo not drawn) [Compound 124]
6.59

Specify measured pIC50 for CC(C)N1C(=O)/C(=C2/COCCN2)c2cc(NC3CCOCC3F)ccc21 (stereo not drawn) [Compound 73] .
7.18

Indicate the recorded pIC50 value for this compound: CC(C)N1C(=O)C(=C2CCOCC2)c2cc(N)ccc21 [Compound 157]
6.16

For the compound CC(C)Nc1ccc2c(c1)/C(=C1\COCCN1)C(=O)N2C1COCCOC1 [Compound 26] , report pIC50.
7.70

Report measured pIC50; entry is CC(C)Nc1ccc2c(c1)/C(=C1\CN(C3COC3)CCN1)C(=O)N2C(C)C [Compound 114]
7.24

Provide one value: measured pIC50 of CC1CCC(C)N1c1ccc2c(c1)/C(=C1\COCCN1)C(=O)N2C (stereo not drawn) [Compound 84]
6.48

###

- subject_of_test: Complex I
- assay_details: Assay A: Determination of Complex I mediated ROS-inhibition (CI)
- measurement_parameters: read-out: CI IC50; ROS generation by Complex I purified from bovine heart, Amplex Red/horse radish peroxidase readout, 8 point concentration-response
observed_property: pIC50
pIC50 is defined as minus the log10 of a concentration measured in mol/L.

Example entries begin here.
O=C1/C(=C2/COCCN2)c2cc(NC3CCOC3)ccc2N1C1CCOC1 (stereo not drawn) [Compound 168]: 7.39
CN(C)c1ccc2c(c1)/C(=C1\CCCN1)C(=O)N2C1CCOCC1 [Compound 42]: 7.38
CC(C)Nc1ccc2c(c1)/C(=C1\COCCN1)C(=O)N2C(C)(C)C [Compound 90]: 6.37
CC(C)N1CCC(Nc2ccc3c(c2)/C(=C2\COCCN2)C(=O)N3C(C)C)CC1 [Compound 96]: 7.20

In one line, give reported pIC50 of the entry CC(=O)N1CCC2(CC1)CN/C(=C1\C(=O)N(C(C)C)c3ccc(NC(C)C)cc31)CO2 [Compound 34] .
7.32

Dear colleague, please send me the reported pIC50 for CN1CCC(Nc2ccc3c(c2)/C(=C2\COCCN2)C(=O)N3C2CCOCC2)CC1 [Compound 150] when you can.
7.32

Determine from records and report pIC50 for CC(C)N1C(=O)/C(=C2/COCCN2)c2cc(NC(C)C(C)(C)C)ccc21 (stereo not drawn) [Compound 55]
6.51

Return pIC50 for the following compound: CC(C)N1CCC(Nc2ccc3c(c2)/C(=C2\COCCN2)C(=O)N3C2CCOCC2)CC1 [Compound 19]
7.66

Look up pIC50 of COCC(C)Nc1ccc2c(c1)/C(=C1\COCCN1)C(=O)N2C1CCOC1 (stereo not drawn) [Compound 52] and report it.
7.21

Data origin: patent US11795147B2
